# EXPERIMENTAL DETAILS: fission yeast growth modulation, primary screen, strain 972, OD600, 24 h, no modulator (AID 1090);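 also: basal condition with compound alone and no growth modifier present; test concentration not given here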
# ASSAY CONTEXT: S. pombe 972 growth, higher = more signal, called active from +8 up or from −8 down
Threshold check on z-score: at or above 0.03 gives label 1, strictly below gives label 0.

Known results for molecules:
[[record]]
molecule = "C=C(C)c1cc2c(c(CCCCCC)n1)[Si](C(C)C)(C(C)C)OC2"
assigned_category = "label 1"

[[record]]
molecule = "C=CC[C@@]1(C(=O)N2CCOCC2)N=C(c2ccc(OCCCO)cc2)O[C@@H]1c1ccccc1CN=[N+]=[N-]"
assigned_category = "label 1"

[[record]]
molecule = "C=CCNC(=O)[C@H]1[C@@H]2C(=O)O[C@@H](c3ccccc3)[C@@H](c3ccccc3)N2[C@@H](c2ccc(O)cc2)[C@]12C(=O)N(C(=O)OCCOC)c1ccccc12"
assigned_category = "label 0"


Request: Please tell me: is the molecule C=CC1c2cc(O)c(OC)cc2CCN1Cc1cc2c(cc1Br)OCO2 (stereo unspecified) at or over 0.03 in terms of z-score?
Response: label 0

Request: Please tell me: is the molecule CC(CO)N1C(=O)[C@@H]2[C@H]3C(=O)OCC=C[C@H]3OC23C=CCN(CCN2CCOCC2)C(=O)[C@@H]13 (stereo partly specified) at or over 0.03 in terms of z-score?
Response: label 0

Request: Please tell me: is the molecule CN1C(=O)C2C=CC(C(O)c3cccc(O)c3)N(Nc3ccccc3)C2C1=O (stereo unspecified) at or over 0.03 in terms of z-score?
Response: label 1

Request: Please tell me: is the molecule O=C1NC(=O)C2C1C=CC(C(O)CCc1ccccc1)N2Nc1ccc(Cl)cc1Cl (stereo unspecified) at or over 0.03 in terms of z-score?
Response: label 0

Request: Please tell me: is the molecule COCCCNC(=O)[C@@]1(Cc2ccccc2N=[N+]=[N-])N=C(c2ccc(OCCCO)cc2)O[C@H]1c1ccccc1 at or over 0.03 in terms of z-score?
Response: label 0

Request: Please tell me: is the molecule CN1C(=O)C2C=CC(C(O)c3cccc4ccccc34)N(N3CCCCC3)C2C1=O (stereo unspecified) at or over 0.03 in terms of z-score?
Response: label 1

Request: Please tell me: is the molecule C=CCOC(=O)[C@H]1[C@@H]2C(=O)O[C@@H](c3ccccc3)[C@@H](c3ccccc3)N2[C@@H](c2ccc(OCCOC(=O)[C@@H]3C[C@@H]4C(=O)N5CCC[C@H]5C(=O)N4[C@@H]3c3ccc(O)cc3)cc2)[C@]12C(=O)Nc1ccc(I)cc12 at or over 0.03 in terms of z-score?
Response: label 1

Request: Please tell me: is the molecule COCCCNC(=O)[C@]1(CCS(=O)(=O)c2ccccc2)N=C(c2ccc(OCCCO)cc2)O[C@@H]1c1ccccc1CN=[N+]=[N-] at or over 0.03 in terms of z-score?
Response: label 1

Request: Please tell me: is the molecule COC(=O)C(CC#Cc1ccc2c(c1)[C@]1(C(=O)N2)[C@H](C(=O)N2CCN(c3ncccn3)CC2)[C@H]2C(=O)O[C@H](c3ccccc3)[C@H](c3ccccc3)N2[C@@H]1c1ccc(OCCO)cc1)C(=O)OC at or over 0.03 in terms of z-score?
Response: label 1

Request: Please tell me: is the molecule O=C1C2C=CC(C(O)c3ccc(F)cc3)N(n3cnnc3)C2C(=O)N1Cc1ccccc1 (stereo unspecified) at or over 0.03 in terms of z-score?
Response: label 1

Request: Please tell me: is the molecule Cc1ccccc1C(O)C1C=CC2C(=O)N(C)C(=O)C2N1N(c1ccccc1)c1ccccc1 (stereo unspecified) at or over 0.03 in terms of z-score?
Response: label 1

Request: Please tell me: is the molecule COC(=O)CCCCCCC(=O)Nc1ccc(NC(=O)CCCC[P+](c2ccccc2)(c2ccccc2)c2ccccc2)cc1 at or over 0.03 in terms of z-score?
Response: label 0

Request: Please tell me: is the molecule [N-]=[N+]=Nc1ccccc1[C@@H]1OC(c2ccc(OCCCO)cc2)=N[C@]1(Cc1ccccc1)C(=O)NCC(O)CO (stereo partly specified) at or over 0.03 in terms of z-score?
Response: label 0

Request: Please tell me: is the molecule COC(=O)c1c(CC[C@@H](CO)NC(=O)N2CCC[C@H]2Cn2cc(Cc3ccccc3)nn2)oc(C(C)=O)c1C(=O)OC at or over 0.03 in terms of z-score?
Response: label 0

Request: Please tell me: is the molecule C=CCC(OC(C)=O)[C@@H]1[C@@H](N(Cc2cccc3ccccc23)C(=O)Cc2ccc(OC)cc2)c2cc(OCCCO)ccc2N1C(=O)c1ccc2ccccc2n1 (stereo partly specified) at or over 0.03 in terms of z-score?
Response: label 1
